shrunken log2 fold change values, listed per item
tested on: Escherichia coli TOP10; assay: shrunken log2 fold change of peptide-encoding DNA abundance (4.5 h post-induction vs induction); higher = less antimicrobial activity (less host growth inhibition); details: time post-induction: 4.5 h; library: site-saturation at positions 5, 18, 19, 20;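 note: peptides expressed intracellularly from a pBAD plasmid library in pooled LB shake-flask culture, induced with 0.3% L-arabinose, DNA abundance read by NGS, three biological replicates, DESeq2 with apeglm shrinkage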

> print(dat)
             sequence.data         attribute.measured  experimental.value
1  RRIRCRPPRLPRPRPRPFIVPRP  shrunken log2 fold change              -0.575
2  RRIRFRPPRLPRPRPRPRLGPRP  shrunken log2 fold change               0.347
3  RRIRTRPPRLPRPRPRPLDAPRP  shrunken log2 fold change            -0.00457
4  RRIRCRPPRLPRPRPRPWGVPRP  shrunken log2 fold change               0.122
5  RRIRNRPPRLPRPRPRPCTQPRP  shrunken log2 fold change              -0.147

Look at this sequence and give its reported shrunken log2 fold change. `RRIRWRPPRLPRPRPRPCDEPRP`
-0.0781

Can you check `RRIRHRPPRLPRPRPRPYHAPRP` next?
-1.21

What about this sequence? `RRIRYRPPRLPRPRPRPPMIPRP`
-1.39

Again, but for `RRIRQRPPRLPRPRPRPLMKPRP`
0.158

Would you kindly repeat that for `RRIRPRPPRLPRPRPRPFPMPRP` ?
-0.175

Note, next up: `RRIRMRPPRLPRPRPRPHMMPRP`
-0.135

Numbers sourced from the supplement of paper PMC9112550.
